Consider the following sequences and their measured folding enthalpy readings.
assay: folding enthalpy; higher = less favourable; fluorescence melt of hairpins on a sequencing array, two-state fit; details: sodium 0.088 M
Dear colleague, please return just the value in kcal/mol, with no unit written.

sequence | folding enthalpy (kcal/mol)
GTGACCGAAAGGTATCAC ((((((....)))..))) | -14.8
GACGTCACGAAAGTGGTC (((..(((....)))))) | -15
GTCCCTCGAAAGAGCGAC (((.(((....))).))) | -26.8
GATCTGCTCTCAGATC ((((((....)))))) | -36.6
GTGGCTCGAAAGAGCAC (((.(((....)))))) | -11.8
GATCCCGGGGGGGATC ((((((....)))))) | -33.7
GCCCATCGAAAGATGGC (((.(((....)))))) | -14
CGTCTTCGGAAACGAACG (((..(((....)))))) | -11.3

Exercise: # input sequence: GACGAGGGAAACCTTGTC (((.(((....))).))) ; wanted: its folding enthalpy
Solution: -31.4

Exercise: # input sequence: GATCCCAATCGGGATC ((((((....)))))) ; wanted: its folding enthalpy
Solution: -40.2

Exercise: # input sequence: GCTGGACGAAAGTCAGC (((.(((....)))))) ; wanted: its folding enthalpy
Solution: -30.6

Origin of values: the array DNA melting data of Ke et al. (doi:10.1101/2024.01.08.574731)
